# TESTED TARGET: T1, human TIGIT protein (human, UniProt Q495A1 22-141, limits assumed)
# T1 construct: Recombinant protein (Genentech) used in ELISA screening and as SPR analyte; also called TIGIT antigen
# T1 sequence: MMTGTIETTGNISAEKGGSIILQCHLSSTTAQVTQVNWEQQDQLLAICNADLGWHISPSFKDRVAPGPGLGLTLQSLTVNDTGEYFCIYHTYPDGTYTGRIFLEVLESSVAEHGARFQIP
# ASSAY PROTOCOL: SPR, captured mAb
# Excerpt: Briefly, a series S CM5 biosensor chip was activated with N-ethyl-N′-(3-dimethylaminopropyl)-carbodiimide hydrochloride (EDC) and N-hydroxysuccinimide (NHS) reagents according to the supplier's (GE Healthcare Biosciences, Piscataway, N.J.) instructions, and a human antibody capture kit was applied to couple goat anti-human Fc IgGs in order to achieve approximately 10,000 response units (RU) on each flow cell, followed by blocking un-reacted groups with 1M ethanolamine. […]
PROPERTY: kon (M⁻¹ s⁻¹)
Give a bare numeral; the unit M⁻¹ s⁻¹ is implied.

# BINDER, kon [M⁻¹ s⁻¹]
data = [
    ("h15C8.L4H1 (antibody, V domains shown, VL: F87Y against h15C8.L1H1; FR/HVR pieces) VH: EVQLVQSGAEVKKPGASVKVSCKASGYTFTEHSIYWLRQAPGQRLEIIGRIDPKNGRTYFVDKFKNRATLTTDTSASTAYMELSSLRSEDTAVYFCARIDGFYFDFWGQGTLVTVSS VL: DIQLTQSPSFLSASVGDRVTITCKGSQNVNKYLVWYQQKPGKAPKLLIYSTDNLQSGIPSRFSGSGSGTEYTLTISSLQPEDFATYYCYQYNNGFTFGQGTKVEIK", 955000),
]

Exam item: Can you share its kon? I mean this binder: h7E7.L1H7 (antibody, V domains shown, VH: F91Y against h7E7.L1H1; FR/HVR pieces) VH: EVQLVQSGAEVKKPGASVKVSCKASGYTFTEYSIYWVRQAPGQRLEIIGRIDPKNGRTYYVDKFKNRATLTADTSASTAYMELSSLRSEDTAVYYCTRIYGFYFDFWGQGTLVTVSS VL: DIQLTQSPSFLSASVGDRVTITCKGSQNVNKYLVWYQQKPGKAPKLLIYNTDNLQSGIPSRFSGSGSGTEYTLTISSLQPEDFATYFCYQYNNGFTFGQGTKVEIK
Marked response: 2.74e+06
